This listing pairs compounds with measured IC50.
Biological target: Nonstructural protein 3 (Zika virus)
Assay: Functional biochemical assay to identify treatments for viral infectious disease that targets Zika NS2B-NS3 protease. Utilizing a direct enzyme activity measurement method, reading the fluorescence intensity is used to characterize the relative potency of inhibitors as IC50.
Design: species or system PRVABC59

Field: example entries. Status: answers known.
O=c1ccc(-n2cncn2)nn1CC=Cc1ccccc1    > 99.5 µM
Cc1n[nH]cc1CC(=O)N1CCCC12CCN(C(=O)c1ccnc(CO)c1)CC2    > 99.5 µM
O=C(N[C@@H](C(=O)NCc1ccccn1)c1ccc(OCc2ccccc2)cc1)OCc1ccccc1    > 99.5 µM
NCCCc1ccnc(NC(=O)c2cc(C3CC3)no2)c1    > 25 µM
CC[C@H]1CN2CCC[C@H]2CN1c1nc2ccccc2n(CC)c1=O    > 99.5 µM

We next turn to a different compound, shown below.
Complete the entry with IC50 for `CCN1CC[C@H](COc2cccc([C@H](NC(=O)OCc3ccccc3)C(=O)Nc3cccc(CN)c3)c2)C1`
> 99.5 µM

###

Molecular target: Nonstructural protein 3 (Zika virus, UniProt A0A024AXB9)
Sequence (A0A024AXB9 whole entry): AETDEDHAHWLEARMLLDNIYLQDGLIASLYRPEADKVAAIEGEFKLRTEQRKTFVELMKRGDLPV
Assay: Functional biochemical assay to identify treatments for viral infectious disease that targets Zika NS2B-NS3 protease. Utilizing a direct enzyme activity measurement method, reading the fluorescence intensity is used to characterize the relative potency of inhibitors as IC50. Synthetic construct has been made based on Zika virus (strain PRVABC59) by Centre for Medicines Discovery, University of Oxford, and the assay has been performed by Enamine biological services, Bienta Ltd.The protocol is publicly available: dx.doi.org/10.17504/protocols.io.36wgqn273gk5/v1
pIC50: −log10 of the molar value.
measure: pIC50

Field: example entries. Status: answers known.
CC(=O)N(c1ccc2c(c1)CNC2)[C@]1(c2cc(Cl)cc(C3CC3)c2)CCCN(C)C1=O    < 4.60
CC(C)n1nncc1-c1cc(F)cc(C(=O)Nc2ccc3c(c2)CNC3)c1    5.46
C[C@H](NC(=O)c1cccc2c1CC(=O)N2)c1nnc2n1CCCC2    < 4.60
O=C1Cc2c(cccc2C(=O)Nc2cnn(Cc3ccncc3)c2)N1    < 4.60
CO[C@H]1Cc2ccc(NC(=O)c3cc(C4CC4)n(C)c3C)cc2C1    < 4.60

Complete the entry with pIC50 for `O=C1Cc2c(cccc2C(=O)Nc2cccc(Cc3nn[nH]n3)c2)N1`
< 4.60

Complete the entry with pIC50 for `NC(=O)c1cn(C2CCCC2)nc1NC(=O)c1cccc2c1CC(=O)N2`
< 4.60

Complete the entry with pIC50 for `O=C1Nc2ccc(C(=O)Nc3ccc4c(c3)CNC4)cc2C1=O`
5.09

###

Target: Nonstructural protein 3 (Zika virus, UniProt A0A024AXB9)
Assay: Functional biochemical assay to identify treatments for viral infectious disease that targets Zika NS2B-NS3 protease. Utilizing a direct enzyme activity measurement method, reading the fluorescence intensity is used to characterize the relative potency of inhibitors as IC50.
Parameters: species or system PRVABC59
measure: IC50

Field: example entries. Status: answers known.
CCCCCn1cc(C(=O)Nc2cccc(CN)c2)c2ccccc21    70.4 µM
CCCC[C@H](NC(C)=O)C(=O)N[C@H](C(=O)NCc1ccc(C(N)=O)cc1)c1ccc(OCc2ccccc2)cc1    > 99.5 µM
C[C@@H](N)c1cc(Cl)cc(C(=O)Nc2cccc(CN)c2)c1    3.42 µM
Cc1c(C(=O)Nc2cccc(-n3nn[nH]c3=O)c2)cc(C2CC2)n1C    > 99.5 µM

Complete the entry with IC50 for `NC[C@]12CC[C@](NC(=O)c3cc(Cl)cc(NC(=O)OCc4ccccc4)c3)(CO1)C2`
49.4 µM
